# systemUnderTest: AKR1C3 (Homo sapiens)
# Sequence (P42330 1-323): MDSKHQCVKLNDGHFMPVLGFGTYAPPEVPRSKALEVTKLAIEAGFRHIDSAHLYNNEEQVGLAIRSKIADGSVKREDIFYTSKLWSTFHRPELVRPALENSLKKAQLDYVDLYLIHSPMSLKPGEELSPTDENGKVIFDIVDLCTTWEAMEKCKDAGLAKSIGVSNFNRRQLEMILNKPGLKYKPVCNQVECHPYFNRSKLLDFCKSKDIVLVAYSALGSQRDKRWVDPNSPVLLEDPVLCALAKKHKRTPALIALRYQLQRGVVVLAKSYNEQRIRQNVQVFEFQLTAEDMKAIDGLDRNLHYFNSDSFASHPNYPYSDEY
# assayNotes: Purified AKR1C3 enzyme assay, [14C]-A'dione to testosterone, TLC based
# Format: biochemical
# Set-up: GST (N); made in house; host or cells: bacterial culture, IPTG induced (E. coli BL21-DE3 is named only for the crystallography preparation)
# conditions: 10 μM inhibitor; purified AKR1C3 TLC based enzyme assay; read-out: AKR1C3 inhibition at 10 μM
measuredProperty: inhibition at 10 µM (%)

The examples below pair each entry with its known result.
* COc1ccc(-c2cn(-c3ccc(CO)cc3)c(=O)c3ccc(OC)cc23)cc1 [Compound 10] | 17
* N#Cc1cc(O)cc2c(-c3cc(F)c(F)c(F)c3)cn(-c3ccc(O)cc3)c(=O)c12 [Compound 85] | 86
* NC(=O)c1cc(O)cc2c(-c3cc(F)c(F)c(F)c3)cn(-c3ccc(O)cc3)c(=O)c12 [Compound 100A] | 0
* CNS(=O)(=O)c1ccc(-c2cn(-c3ccc(O)cc3)c(=O)c3ccc(O)cc23)cc1 [Compound 36] | 20

P = COc1ccc(-n2cc(-c3ccc(C(F)(F)F)cc3)c3cc(OC)ccc3c2=O)cc1 [Compound 35]
Q = N#Cc1cc(O)cc2c(-c3ccc(C(F)(F)F)c(F)c3)cn(-c3ccc(O)cc3)c(=O)c12 [Compound 102]
Lowest inhibition at 10 µM? choose P or Q Respond with the label that goes with your answer.
P
(P: 0%, Q: 10%)

A = O=c1c2ccc(O)cc2c(-c2ccc(C(F)(F)F)cc2)cn1-c1ccc(C(F)(F)F)cc1 [Compound 30]
B = O=c1c2ccc(O)cc2c(-c2cc(F)c(F)c(F)c2)cn1-c1ccc(O)cc1 [Compound 79]
// compare measured inhibition at 10 µM between A and B ; output the lower one Your choice should be expressed through its label.
A
